measurement_target: Carboxypeptidase A1 (Homo sapiens)
Sequence (P15085 whole entry): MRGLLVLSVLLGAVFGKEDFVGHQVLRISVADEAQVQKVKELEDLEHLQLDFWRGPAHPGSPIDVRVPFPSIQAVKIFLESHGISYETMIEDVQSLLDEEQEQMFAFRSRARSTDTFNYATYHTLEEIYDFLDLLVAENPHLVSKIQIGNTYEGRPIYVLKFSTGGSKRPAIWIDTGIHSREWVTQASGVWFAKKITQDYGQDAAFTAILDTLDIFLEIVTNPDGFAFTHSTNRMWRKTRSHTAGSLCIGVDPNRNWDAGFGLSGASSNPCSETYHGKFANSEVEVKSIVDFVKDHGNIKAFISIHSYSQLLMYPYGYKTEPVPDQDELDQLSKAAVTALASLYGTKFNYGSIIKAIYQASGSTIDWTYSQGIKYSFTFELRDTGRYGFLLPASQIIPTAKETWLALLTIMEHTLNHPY
measurement_notes: Inhibition of human CPA1 using AAFP as substrate preincubated for 45 mins to 2 hrs measured at 30 sec intervals for 15 mins by UV/vis-spectrophotometry
assay_readout: Ki (nM)
Expressed in nM, but write only the number.

Q. So what does the record say about Ki for CC(=O)N[C@@H](CC(C)C)C(=O)N[C@@H](C)P(=O)(O)C[C@@H](CCc1ccccc1)C(=O)O ?
A. 0.087

Q. # repeat for CC(=O)NCCOCCOCC(=O)N[C@@H](Cc1ccc(O)cc1)C(=O)N[C@@H](C)P(=O)(O)C[C@@H](CCc1ccccc1)C(=O)O
A. 0.129

Q. // query: C[C@H](NC(=O)[C@H](Cc1ccc(O)cc1)NC(=O)COCCOCCNC(=O)CCOCCOCCOCCNC(=O)CCc1ccc(C(=C\C=C2\N(CCCCS(=O)(=O)O)c3ccc4c(S(=O)(=O)[O-])cc(S(=O)(=O)O)cc4c3C2(C)C)/C=C/C2=[N+](CCCCS(=O)(=O)O)c3ccc4c(S(=O)(=O)O)cc(S(=O)(=O)O)cc4c3C2(C)C)cc1)P(=O)(O)C[C@@H](CCc1ccccc1)C(=O)O
A. 0.089

Q. How about CC(=O)N[C@@H](CCC(=O)O)C(=O)N[C@@H](C)P(=O)(O)C[C@@H](CCc1ccccc1)C(=O)O ?
A. 3.1

Q. Now this one: CC(=O)N[C@@H](CC(C)C)C(=O)N[C@@H](Cc1ccccc1)P(=O)(O)C[C@@H](CCc1ccccc1)C(=O)O
A. 0.08

Q. // repeat for CC(=O)N[C@@H](Cc1ccc(O)cc1)C(=O)N[C@@H](C)P(=O)(O)C[C@@H](CCc1ccccc1)C(=O)O and report
A. 0.107

Q. // query: CC(=O)N1CCC[C@H]1C(=O)N[C@@H](C)P(=O)(O)C[C@@H](CCc1ccccc1)C(=O)O
A. 1.7

====

measurement_target: UniProt:Q9UI42
Sequence (Q9UI42 whole entry): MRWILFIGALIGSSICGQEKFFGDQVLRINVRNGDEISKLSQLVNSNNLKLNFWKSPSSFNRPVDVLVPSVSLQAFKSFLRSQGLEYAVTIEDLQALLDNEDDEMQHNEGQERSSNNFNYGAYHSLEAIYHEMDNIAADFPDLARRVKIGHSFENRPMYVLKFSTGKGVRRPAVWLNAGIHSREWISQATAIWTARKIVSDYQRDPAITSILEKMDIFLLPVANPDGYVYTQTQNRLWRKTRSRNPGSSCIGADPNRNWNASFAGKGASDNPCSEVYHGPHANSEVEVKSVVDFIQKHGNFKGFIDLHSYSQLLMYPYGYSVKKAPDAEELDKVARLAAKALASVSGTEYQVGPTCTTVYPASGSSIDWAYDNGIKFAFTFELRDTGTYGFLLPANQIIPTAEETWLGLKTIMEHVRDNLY
assay_readout: pKi
Please report pKi as the negative decimal logarithm of the molar concentration, giving only the number.

Q. Which pKi value is on record for CC(=O)N[C@@H](CC(C)C)C(=O)N[C@@H](Cc1ccccc1)P(=O)(O)C[C@@H](CCc1ccccc1)C(=O)O ?
A. 8.72

Q. And CC(=O)N[C@@H](CC(C)C)C(=O)N[C@@H](C)P(=O)(O)C[C@@H](CCc1ccccc1)C(=O)O ?
A. 8.48

Q. Please answer likewise for CC(=O)N[C@@H](CC(C)C)C(=O)N[C@@H](Cc1ccccc1)P(=O)(O)C[C@@H](Cc1ccccc1)C(=O)O
A. 9.41

Q. What would you report for C[C@H](NC(=O)[C@H](Cc1ccc(O)cc1)NC(=O)COCCOCCN)P(=O)(O)C[C@@H](CCc1ccccc1)C(=O)O ?
A. 8.27
